These data points were gathered from patent US12286437B2.

# assay_target: CYP3A4 (Homo sapiens, UniProt P08684)
# Construct: Pooled human microsomes and selective CYP probe substrates were used; from tissue; host or cells: pooled human liver microsomes
# Sequence (P08684 whole entry): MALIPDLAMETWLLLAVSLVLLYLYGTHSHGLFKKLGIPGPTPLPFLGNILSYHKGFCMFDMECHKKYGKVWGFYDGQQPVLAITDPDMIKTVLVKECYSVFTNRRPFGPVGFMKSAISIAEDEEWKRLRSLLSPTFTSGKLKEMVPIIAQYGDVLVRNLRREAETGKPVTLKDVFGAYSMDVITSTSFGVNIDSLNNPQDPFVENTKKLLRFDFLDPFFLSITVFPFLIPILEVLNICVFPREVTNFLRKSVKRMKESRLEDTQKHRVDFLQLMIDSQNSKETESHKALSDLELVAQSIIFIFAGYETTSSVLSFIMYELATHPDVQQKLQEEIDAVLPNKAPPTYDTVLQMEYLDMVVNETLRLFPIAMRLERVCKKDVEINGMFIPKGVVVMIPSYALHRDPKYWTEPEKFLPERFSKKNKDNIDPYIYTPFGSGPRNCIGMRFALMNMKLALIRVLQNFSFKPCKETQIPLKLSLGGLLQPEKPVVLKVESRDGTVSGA
# protocol_description: Time-dependent inhibition of CYP3A4 in human liver microsomes (testosterone and midazolam probes)
# Format: in vitro ADME
# particulars: CYP3A4-M (midazolam probe substrate), 25 μM, fold change
measured_property: (% Activity NADPH T0)/(% Activity NADPH T30)
Numbers only.

- C[C@H]1CC[C@H](N2CC(=O)N(Cc3ccc(F)c(F)c3)C3(CN(C(N)=O)C3)C2=O)CC1: 1.1
- O=C1[C@H](C2COC2)N(Cc2ccc(C(F)(F)F)cc2)C(=O)CN1c1ncc(Cl)cc1F [Comparator C, reference compound]: 1.6
- CC(C)N1CC(=O)N(Cc2ccc(Cl)c(F)c2)C2(CN(c3cccnn3)C2)C1=O: 1.0

Next up:
**Q:** State, in one line, measured (% Activity NADPH T0)/(% Activity NADPH T30) of CC(C)N1CC(=O)N(Cc2ccc(C(F)(F)F)cc2)C2(CN(c3cccnn3)C2)C1=O
**A:** 1.0
